Target: CCK-B receptors (CHO-CCK) (Homo sapiens)
Construct: expressed in transfected cells; host or cells: CHO (CHO-CCK model cells)
Test: Calcium flux (Fluo-8) agonist test on CHO-CCK model cells
Format: cell-based
Conditions: compound at 10 μM; percentage of signal of 20 nM CCK8 alone
MEASURED_PARAMETER: Agonistic Activity (%) at 10 μM

Example entries begin here.
COC(=O)C[C@H](NC(=O)[C@H](CCS(C)(=O)=O)NC(=O)[C@H](N)Cc1c[nH]c2ccccc12)C(=O)N[C@@H](Cc1ccc(Br)cc1)C(N)=O [HT-136, D-Trp-Met(O2)-Asp(Ome)-Phe(4-Br)-NH2]; 2.69
C[S+]([O-])CC[C@H](NC(=O)[C@H](N)Cc1c[nH]c2ccccc12)C(=O)N[C@@H](CC(=O)O)C(=O)N[C@@H](Cc1cccc(I)c1)C(N)=O (stereo partly drawn) [HT-45, D-Trp-Met(O)-Asp-Phe(3-I)-NH2]; 58.98
COC(=O)C[C@H](NC(=O)[C@H](CCSC)NC(=O)[C@H](N)Cc1c[nH]c2ccccc12)C(=O)N[C@@H](Cc1cccc(F)c1)C(N)=O [HT-78, D-Trp-Met-Asp(Ome)-Phe(3-F)-NH2]; 20.83
C[S+]([O-])CC[C@H](NC(=O)[C@H](N)Cc1c[nH]c2ccccc12)C(=O)N[C@@H](CC(=O)O)C(=O)N[C@@H](Cc1ccc(C#N)cc1)C(N)=O (stereo partly drawn) [HT-49, D-Trp-Met(O)-Asp-Phe(4-CN)-NH2]; 1.03
COC(=O)C[C@H](NC(=O)[C@H](CCSC)NC(=O)[C@H](N)Cc1c[nH]c2ccccc12)C(=O)N[C@@H](Cc1ccccc1)C(N)=O [HT-18, D-Trp-Met-Asp(OMe)-Phe-NH2]; 7.59
CS(=O)(=O)CC[C@H](NC(=O)[C@H](N)Cc1c[nH]c2ccccc12)C(=O)N[C@@H](CC(=O)O)C(=O)N[C@@H](Cc1cccc(Br)c1)C(N)=O [HT-63, D-Trp-Met(O2)-Asp-Phe(3-Br)-NH2]; 48.46

I: C[S+]([O-])CC[C@H](NC(=O)[C@H](N)Cc1c[nH]c2ccccc12)C(=O)N[C@@H](CC(=O)O)C(=O)N[C@@H](Cc1cc(F)c(F)c(F)c1)C(N)=O (stereo partly drawn) [HT-57, D-Trp-Met(O)-Asp-Phe(3,4,5-TriF)-NH2]
II: COC(=O)C[C@H](NC(=O)[C@H](CCS(C)(=O)=O)NC(=O)[C@H](N)Cc1c[nH]c2ccccc12)C(=O)N[C@@H](Cc1cc(Cl)cc(Cl)c1)C(N)=O [HT-140, D-Trp-Met(O2)-Asp(Ome)-Phe(3,5-DiCl)-NH2]
III: CSCC[C@H](NC(=O)[C@H](N)Cc1c[nH]c2ccccc12)C(=O)N[C@@H](CC(=O)O)C(=O)N[C@@H](Cc1ccc(Br)cc1)C(N)=O [HT-34, D-Trp-Met-Asp-Phe(4-Br)-NH2]
Input line: Hey, quick one: sort these by Agonistic Activity (%) at 10 μM, low to high? Note for the reader: the ranking is given by listing the labels in the order requested.
Output line: II, I, III

----------
Target: CCK-B receptors (CHO-CCK) (Homo sapiens, UniProt P32239)
Construct: expressed in transfected cells; host or cells: CHO (CHO-CCK model cells)
Sequence (P32239 whole entry): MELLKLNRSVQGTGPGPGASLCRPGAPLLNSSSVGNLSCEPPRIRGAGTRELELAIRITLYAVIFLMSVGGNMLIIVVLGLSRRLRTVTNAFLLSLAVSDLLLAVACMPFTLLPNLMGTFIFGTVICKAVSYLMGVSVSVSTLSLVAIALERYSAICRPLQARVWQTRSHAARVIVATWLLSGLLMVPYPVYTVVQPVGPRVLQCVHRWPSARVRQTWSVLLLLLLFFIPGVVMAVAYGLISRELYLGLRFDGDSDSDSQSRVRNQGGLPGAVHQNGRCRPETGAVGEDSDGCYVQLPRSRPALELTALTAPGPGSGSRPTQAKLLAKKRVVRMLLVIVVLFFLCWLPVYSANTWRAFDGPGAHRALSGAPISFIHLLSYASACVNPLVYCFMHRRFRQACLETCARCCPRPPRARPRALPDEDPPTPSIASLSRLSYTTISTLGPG
Experiment: Calcium flux (Fluo-8) agonist test on CHO-CCK model cells
Assay type: cell-based
Conditions: compound at 10 μM; percentage of signal of 20 nM CCK8 alone
Method: • To detect changes in intracellular calcium ion concentration after the compound acts on model cells containing CCK-B receptors (CHO-CCK). • 1. The compound was formulated to a 10 mM mother liquor with DMSO, and then diluted into a series of 9 concentrations with a 3-fold gradient to form a 1000× stock solution. […] • 1. […] In the process of incubating cells, the compounds to be detected were prepared with HHBS. • 5. […]
MEASURED_PARAMETER: Agonistic Activity (%) at 10 μM

A: CSCC[C@H](NC(=O)[C@H](N)Cc1c[nH]c2ccccc12)C(=O)N[C@@H](CC(=O)O)C(=O)N[C@@H](Cc1ccc(C)cc1)C(N)=O
B: CS(=O)(=O)CC[C@H](NC(=O)[C@H](N)Cc1c[nH]c2ccccc12)C(=O)N[C@@H](CC(=O)O)C(=O)N[C@@H](Cc1ccc(C#N)cc1)C(N)=O
C: CSCC[C@H](NC(=O)[C@H](N)Cc1c[nH]c2ccccc12)C(=O)N[C@@H](CC(=O)O)C(=O)N[C@@H](Cc1ccccc1[N+](=O)[O-])C(N)=O
D: COC(=O)C[C@H](NC(=O)[C@H](CCS(C)(=O)=O)NC(=O)[C@H](N)Cc1c[nH]c2ccccc12)C(=O)N[C@@H](Cc1ccc(C)cc1)C(N)=O
E: COC(=O)C[C@H](NC(=O)[C@H](CC[S+](C)[O-])NC(=O)[C@H](N)Cc1c[nH]c2ccccc12)C(=O)N[C@@H](Cc1cccc(F)c1)C(N)=O (stereo partly drawn)
Input line: Rank by decreasing Agonistic Activity (%) at 10 μM the items listed here. Sort and list the labels as requested.
Output line: A, C, E, B, D
(A: 88.74%, C: 50.60%, E: 2.89%, B: 0.33%, D: −14.42%)

P: CSCC[C@H](NC(=O)[C@H](N)Cc1c[nH]c2ccccc12)C(=O)N[C@@H](CC(=O)O)C(=O)N[C@@H](Cc1ccc(I)cc1)C(N)=O
Q: CSCC[C@H](NC(=O)[C@H](N)Cc1c[nH]c2ccccc12)C(=O)N[C@@H](CC(=O)O)C(=O)N[C@@H](Cc1cc(Cl)cc(Cl)c1)C(N)=O
R: COC(=O)C[C@H](NC(=O)[C@H](CCS(C)(=O)=O)NC(=O)[C@H](N)Cc1c[nH]c2ccccc12)C(=O)N[C@@H](Cc1ccc(Cl)cc1)C(N)=O
Input line: Ranking field: Agonistic Activity (%) at 10 μM; order: falling. Put the labels in the requested order and write them down.
Output line: Q, P, R

----------
Target: CCK-B receptors (CHO-CCK) (Homo sapiens, UniProt P32239)
Construct: expressed in transfected cells; host or cells: CHO (CHO-CCK model cells)
Experiment: Calcium flux (Fluo-8) agonist test on CHO-CCK model cells
Format: cell-based
Conditions: compound at 10 μM; percentage of signal of 20 nM CCK8 alone
MEASURED_PARAMETER: Agonistic Activity (%) at 10 μM

Recorded results for 5 compounds are shown here.
C[S+]([O-])CC[C@H](NC(=O)[C@H](N)Cc1c[nH]c2ccccc12)C(=O)N[C@@H](CC(=O)O)C(=O)N[C@@H](Cc1ccc(Br)cc1)C(N)=O (stereo partly drawn) [HT-51, D-Trp-Met(O)-Asp-Phe(4-Br)-NH2]; 17.18
COC(=O)C[C@H](NC(=O)[C@H](CC[S+](C)[O-])NC(=O)[C@H](N)Cc1c[nH]c2ccccc12)C(=O)N[C@@H](Cc1cc(Cl)cc(Cl)c1)C(N)=O (stereo partly drawn) [HT-123, D-Trp-Met(O)-Asp(Ome)-Phe(3,5-DiCl)-NH2]; 0.84
COC(=O)C[C@H](NC(=O)[C@H](CCSC)NC(=O)[C@H](N)Cc1c[nH]c2ccccc12)C(=O)N[C@@H](Cc1ccccc1[N+](=O)[O-])C(N)=O [HT-75, D-Trp-Met-Asp(Ome)-Phe(2-NO2)-NH2]; −0.20
CS(=O)(=O)CC[C@H](NC(=O)[C@H](N)Cc1c[nH]c2ccccc12)C(=O)N[C@@H](CC(=O)O)C(=O)N[C@@H](Cc1ccc([N+](=O)[O-])cc1)C(N)=O [HT-67, D-Trp-Met(O2)-Asp-Phe(4-NO2)-NH2]; −1.49
CSCC[C@H](NC(=O)[C@H](N)Cc1c[nH]c2ccccc12)C(=O)N[C@@H](CC(=O)O)C(=O)N[C@@H](Cc1cccc(Br)c1)C(N)=O [HT-29, D-Trp-Met-Asp-Phe(3-Br)-NH2]; 85.68

P: COC(=O)C[C@H](NC(=O)[C@H](CC[S+](C)[O-])NC(=O)[C@H](N)Cc1c[nH]c2ccccc12)C(=O)N[C@@H](Cc1ccccc1F)C(N)=O (stereo partly drawn) [HT-110, D-Trp-Met(O)-Asp(Ome)-Phe(2-F)-NH2]
Q: COC(=O)C[C@H](NC(=O)[C@H](CCS(C)(=O)=O)NC(=O)[C@H](N)Cc1c[nH]c2ccccc12)C(=O)N[C@@H](Cc1cccc(F)c1)C(N)=O [HT-129, D-Trp-Met(O2)-Asp(Ome)-Phe(3-F)-NH2]
R: C[S+]([O-])CC[C@H](NC(=O)[C@H](N)Cc1c[nH]c2ccccc12)C(=O)N[C@@H](CC(=O)O)C(=O)N[C@@H](Cc1cc(F)cc(F)c1)C(N)=O (stereo partly drawn) [HT-56, D-Trp-Met(O)-Asp-Phe(3,5-DiF)-NH2]
S: C[S+]([O-])CC[C@H](NC(=O)[C@H](N)Cc1c[nH]c2ccccc12)C(=O)N[C@@H](CC(=O)O)C(=O)N[C@@H](Cc1ccc(N=[N+]=[N-])cc1)C(N)=O (stereo partly drawn) [HT-48, D-Trp-Met(O)-Asp-Phe(4-N3)-NH2]
Input line: # desc sort on Agonistic Activity (%) at 10 μM across 4 compounds In your reply, arrange the labels in the requested order.
Output line: R, S, P, Q

I: COC(=O)C[C@H](NC(=O)[C@H](CCSC)NC(=O)[C@H](N)Cc1c[nH]c2ccccc12)C(=O)N[C@@H](Cc1ccccc1F)C(N)=O [HT-76, D-Trp-Met-Asp(Ome)-Phe(2-F)-NH2]
II: COC(=O)C[C@H](NC(=O)[C@H](CCSC)NC(=O)[C@H](N)Cc1c[nH]c2ccccc12)C(=O)N[C@@H](Cc1cc(F)cc(F)c1)C(N)=O [HT-90, D-Trp-Met-Asp(Ome)-Phe(3,5-DiF)-NH2]
Input line: Lab note: check whether I or II has the lower measured Agonistic Activity (%) at 10 μM. Lab log: write the label of the selected item as the result.
Output line: I

I: CS(=O)(=O)CC[C@H](NC(=O)[C@H](N)Cc1c[nH]c2ccccc12)C(=O)N[C@@H](CC(=O)O)C(=O)N[C@@H](Cc1ccc(I)cc1)C(N)=O [HT-71, D-Trp-Met(O2)-Asp-Phe(4-I)-NH2]
II: COC(=O)C[C@H](NC(=O)[C@H](CCSC)NC(=O)[C@H](N)Cc1c[nH]c2ccccc12)C(=O)N[C@@H](Cc1cccc(Cl)c1)C(N)=O [HT-77, D-Trp-Met-Asp(Ome)-Phe(3-Cl)-NH2]
Input line: Among I and II , whose measured Agonistic Activity (%) at 10 μM is the smaller figure? Kindly give the label for the entry you pick.
Output line: II

P: COC(=O)C[C@H](NC(=O)[C@H](CC[S+](C)[O-])NC(=O)[C@H](N)Cc1c[nH]c2ccccc12)C(=O)N[C@@H](Cc1ccc(F)cc1)C(N)=O (stereo partly drawn) [HT-121, D-Trp-Met(O)-Asp(Ome)-Phe(4-F)-NH2]
Q: CSCC[C@H](NC(=O)[C@H](N)Cc1c[nH]c2ccccc12)C(=O)N[C@@H](CC(=O)O)C(=O)N[C@@H](Cc1cccc(Cl)c1)C(N)=O [HT-26, D-Trp-Met-Asp-Phe(3-Cl)-NH2]
Input line: Dear colleague, could you let me know whether P or Q has the lower recorded Agonistic Activity (%) at 10 μM? Thanks. # answer = label of selected item
Output line: P
